Assay: viability of PTEN-null HCT116 cells – cell-based, HCT116 clonal line, CellTiter-Glo, pilot screen (AID 824)
Conditions: HCT116 PTEN-deleted viability, 60 h, at 10 µM
Results filed as inconclusive are left out. Activity calls are given as the source filed them.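 Rule for the calls: active = viability at or below 27.92% in each of two runs, the all-compound median minus 4 SD; inconclusive = no clear call, values can overlap the other calls; inactive = the rest.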
Outcomes: T for active, F for inactive

CC1Cc2ccccc2N1C(=O)c1cnc2n(c1=O)CCS2 (stereo not given)    F
CCOC(=O)Cn1c(=O)c(-c2ccccc2N)nc2ccccc21    F
Cc1occc1C(=O)N1CCN(c2ncccn2)CC1    F
CCOc1ccc(Cn2nnc(C(=O)Nc3cc(C)cc(C)c3)c2N)cc1    F
Cn1cnc2cc(NC(=O)c3ccc(Cl)cc3)ccc21    F
COC(=O)CSC1=C(C#N)C(c2ccc(F)cc2)CC(=O)N1 (stereo not given)    F
COc1cccc(C2=NOC(C(=O)N3CCc4ccccc4C3)C2)c1 (stereo not given)    F
CCOC(=O)Cc1c(C)nc2c(-c3ccccc3)c[nH]n2c1=O    F
CC(=O)N(c1ccc(Br)cc1)C1C=CS(=O)(=O)C1 (stereo not given)    F
O=C(CCn1c(=O)oc2ccccc21)NCc1ccco1    F
CC(NC(=O)c1ccc(Cl)cc1)C(=O)N1CCCCC1 (stereo not given)    F
O=C(CNS(=O)(=O)c1cccs1)Nc1ccc2c(c1)OCCO2    F
CCc1cccc(NC(=O)CCc2nc(-c3cccs3)no2)c1    F
CC1=C(C(N)=O)C(c2ccccn2)n2nc(SCc3ccccc3)nc2N1 (stereo not given)    F
CC(=O)c1ccc(NC(=O)CSc2nnc(Cc3cccn3C)n2-c2ccc(F)cc2)cc1    F
Cc1cc(NC(=O)CS(=O)(=O)c2cn(Cc3cccc(F)c3)c3ccccc23)no1    F
O=C(Cn1c(-c2cncs2)nc2ccccc21)NCCc1ccccc1    F
CCOC(=O)CC1C(=O)NCCN1Cc1cccc(OC)c1 (stereo not given)    F
CCOCCCNC(=O)C(c1ccc(C)cc1)N(Cc1ccc2c(c1)OCO2)C(=O)CNC(C)=O (stereo not given)    F
Cn1c(=O)[nH]c(=O)c2c1nc(Sc1ccccc1)n2CCc1ccccc1    F
CCN(CC)S(=O)(=O)c1ccc(Cl)c(C(=O)Nc2nnc(C)s2)c1    F
COc1ccc(N2CCN(C(=O)c3ccc4nc(N5CCCCC5)sc4c3)CC2)cc1    F
Cc1cccc(N2CCN(C(=O)Cn3nc(Cc4ccncc4)c4ccccc4c3=O)CC2)c1C    F
COc1ccc(OC)c(C(C)NC=O)c1 (stereo not given)    F
O=C(Cn1ncc2c1-c1ccccc1OC2)N1CCN(c2ccccn2)CC1    F
O=C(NCc1cccs1)C(Cc1ccccc1)n1cccc1 (stereo not given)    F
c1ccn2c(SCc3ccc4c(c3)OCCO4)nnc2c1    F
COc1ccccc1CNC(=O)c1cnc2ccccn2c1=O    F
NC(=O)c1cccc2c1C(=O)N(C1CCCCC1)C2    F
CCOC(=O)c1sc2nc(NC(=O)COc3ccccc3)sc2c1C    F
CC12CN3CCN(CC(C3)C1(O)CN1CCCCC1)C2 (stereo not given)    F
c1ccc(C(Cc2nc(-c3ccccn3)no2)c2ccccc2)cc1    F
O=c1[nH]c(SCc2ccc(F)cc2)nc2c1cnn2-c1ccc(F)cc1    F
Cc1c(NC(=O)c2noc3c2CCc2ccccc2-3)c(=O)n(-c2ccccc2)n1C    F
CC1CN(S(=O)(=O)c2ccc(C(=O)Nc3nnc(-c4ccc5c(c4)CCCC5)o3)cc2)CC(C)O1 (stereo not given)    T
N#CC(C(=O)Nc1ccccc1)=C1CCCCC1    F
COc1ccc(OC)c(C2=NOC(C(=O)Nc3cc(C)nn3-c3ccccc3)C2)c1 (stereo not given)    F
CC(C)OC(=O)c1ccc(OC(=O)c2cccnc2)cc1    F
FC(F)Sc1ccc(Nc2ncnc3nc[nH]c23)cc1    F
COc1ccc(-c2nc(C(N)=O)c3[nH]c(=O)n(-c4ccccc4OC)c3n2)c(OC)c1    F
CC(=O)n1cc(-c2ccncc2)c2ccccc21    F
Cn1c(=O)c2cc(S(=O)(=O)NC(C(=O)Nc3cccnc3)c3ccccc3)ccc2n(C)c1=O (stereo not given)    F
CCOC(=O)C1CCN(S(=O)(=O)c2cc(Br)cc3c2N(C(C)=O)C(C)C3)CC1 (stereo not given)    F
COc1ccc(N(C)C(=O)CCS(=O)(=O)c2cccc3nonc23)c(OC)c1    F
CCOc1ccc(N(CC(=O)NCc2cccs2)S(=O)(=O)c2c(C)noc2C)cc1    F
